B1: NCF4 (parent)
chain: FGPDSKSSALACTLPTLPAKVYVG

variants of: B1; assay: protein stability index of a GFP-peptide fusion (GPS, HEK-293T) (PSI 1-6); higher = more stable; conditions: c terminus: a fixed tail appended;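 further: lentivirally expressed fusions sorted by FACS into six bins by GFP to DsRed ratio, PSI derived from sequencing read proportions per bin multiplied by bin number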
# Lookup of reported protein stability index keyed by entry
Please reply with the number alone, leaving off any unit.

Worked cases, protein stability index given:
{"sequence-variant": "L17D", "measured": 2.76}
{"sequence-variant": "S8H", "measured": 1.67}
{"sequence-variant": "G2H", "measured": 1.61}
{"sequence-variant": "D4H", "measured": 1.18}
{"sequence-variant": "C12R", "measured": 2.5}

Entry A11D , protein stability index reported as 2.99

protein stability index recorded for this variant, F1S , is 3.64

// Y22H : protein stability index value = 2.87

# protein stability index (variant: T16R ) is 1.97

Measured protein stability index of P15W : 3.34

Record L17M . Reported protein stability index: 2.24
